The reported measurements were obtained from the supplement of paper PMC10065799.

Attribute: phosphorylation enrichment
system: c-Src; assay: phosphorylation enrichment, bacterial display (enrichment ratio); higher = better substrate or ligand; peptides without Tyr show the background
Give your answer as a number; write no unit.

Would you please look over these solved cases?
DEDFLCREELA [POR_Y575_Y575C_YF] : 0.613
HKDNNYVSMWF [PAPOLG_Y432] : 0.666
QNAGDYYDLYG [PTPN11_Y62_T59A] : 4.65

The sequence QPGTDYKIYRY [FN1_Y1970_L1974R] , when measured on c-Src, yielded phosphorylation enrichment of 0.527

The sequence GKFFQYDTWNQ [IGF2_Y116_K120N] , when measured on c-Src, yielded phosphorylation enrichment of 0.872

The sequence AAAAMYTFLPD [MYORG_Y36] , when measured on c-Src, yielded phosphorylation enrichment of 4.45

The sequence KKHFSYAWPFF [BRDT_Y291_YF] , when measured on c-Src, yielded phosphorylation enrichment of 0.529

The sequence FSNVLYRPRGA [TMIGD2_Y197_YF] , when measured on c-Src, yielded phosphorylation enrichment of 0.477

The sequence GGSSPYSRRLA [CDK13_Y351_P356A] , when measured on c-Src, yielded phosphorylation enrichment of 0.468

The sequence EYHRLYEEYTR [PIK3R1_Y467_D464H] , when measured on c-Src, yielded phosphorylation enrichment of 4.19

The sequence ADLTEYLSTHY [UQCRC1_Y219] , when measured on c-Src, yielded phosphorylation enrichment of 0.625

The sequence EATKGYPDDPT [G6PD_Y322_L323P] , when measured on c-Src, yielded phosphorylation enrichment of 0.493

* * *

biological target: EPHB2 (UniProt P29323); assay: phosphorylation enrichment, bacterial display (enrichment ratio); higher = better substrate or ligand; peptides without Tyr show the background
Sequence (P29323 whole entry, looked up): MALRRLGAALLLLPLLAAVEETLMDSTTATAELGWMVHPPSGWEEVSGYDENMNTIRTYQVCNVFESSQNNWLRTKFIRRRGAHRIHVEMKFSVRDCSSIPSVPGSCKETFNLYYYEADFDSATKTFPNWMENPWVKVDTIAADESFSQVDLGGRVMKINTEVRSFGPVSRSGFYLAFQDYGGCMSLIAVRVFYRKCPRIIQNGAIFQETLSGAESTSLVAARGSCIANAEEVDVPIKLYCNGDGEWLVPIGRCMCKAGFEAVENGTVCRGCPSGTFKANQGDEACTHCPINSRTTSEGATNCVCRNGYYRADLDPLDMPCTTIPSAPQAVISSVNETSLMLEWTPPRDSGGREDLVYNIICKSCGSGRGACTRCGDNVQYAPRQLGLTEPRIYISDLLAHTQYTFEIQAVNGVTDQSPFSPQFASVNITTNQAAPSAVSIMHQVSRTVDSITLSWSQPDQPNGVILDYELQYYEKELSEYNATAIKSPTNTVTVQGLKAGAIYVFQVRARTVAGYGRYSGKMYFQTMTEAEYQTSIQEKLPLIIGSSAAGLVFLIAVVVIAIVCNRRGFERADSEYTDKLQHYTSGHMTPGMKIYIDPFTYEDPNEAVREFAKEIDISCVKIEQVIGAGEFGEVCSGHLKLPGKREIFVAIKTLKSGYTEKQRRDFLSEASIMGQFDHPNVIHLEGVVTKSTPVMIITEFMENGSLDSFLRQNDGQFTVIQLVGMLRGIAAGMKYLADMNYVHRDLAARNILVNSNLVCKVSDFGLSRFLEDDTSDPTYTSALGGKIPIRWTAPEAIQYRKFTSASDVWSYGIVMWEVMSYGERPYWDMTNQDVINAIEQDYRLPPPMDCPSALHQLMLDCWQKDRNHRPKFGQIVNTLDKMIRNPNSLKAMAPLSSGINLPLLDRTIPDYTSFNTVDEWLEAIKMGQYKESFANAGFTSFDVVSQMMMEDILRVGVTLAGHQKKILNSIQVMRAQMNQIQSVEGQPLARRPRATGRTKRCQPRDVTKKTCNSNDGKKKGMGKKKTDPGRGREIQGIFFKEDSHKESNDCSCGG
Binary call on phosphorylation enrichment: criterion met from 0.6 upward, criterion not met beneath that.

Worked cases, answers included:
GRPMDYQVSIT [OTOF_Y254] : criterion met
EDSEFYKAFEE [CASQ2_Y179_YF] : criterion met
STFVPYEIKVQ [L1CAM_Y784] : criterion not met
IVAREYYSEAD [CAMK2A_Y106] : criterion not met
GQKVAYGGTGD [ALDH3A1_Y305] : criterion not met

Prompt: In plain terms: is recorded phosphorylation enrichment at least 0.6 for RPASQYPHQVP [ADAM12_Y895_P893S] ?
Completion: criterion met

Prompt: In plain terms: is recorded phosphorylation enrichment at least 0.6 for WPLKWYAPECI [ZAP70_Y506] ?
Completion: criterion met

Prompt: In plain terms: is recorded phosphorylation enrichment at least 0.6 for SHNELYYEEAE [VANGL1_Y344] ?
Completion: criterion met

* * *

tested on: Fer (mouse); test: phosphorylation enrichment, bacterial display (enrichment ratio); higher = better substrate or ligand; peptides without Tyr show the background
PARAMETER: phosphorylation enrichment
Give your answer as a number; write no unit.

Would you please look over these solved cases?
TRVMEYISCLD [CLTCL1_Y1043_R1046C] : 0.592
SHLEDYPFNAE [AKR1B10_Y310] : 0.594

For this sequence ( YPPTHYIRRMP [SLC4A11_Y820_V824M] ), measured phosphorylation enrichment is 0.59

For this sequence ( EQMASYFGHSV [ITGA2B_Y319] ), measured phosphorylation enrichment is 0.584

For this sequence ( HNVPICEGFAL [ACTC1_Y168_Y168C_YF] ), measured phosphorylation enrichment is 0.59

* * *

Attribute: SH2 binding enrichment
biological target: Grb2 SH2 (UniProt P62993); experiment: SH2 binding enrichment of the phosphorylated peptide, bacterial display (enrichment ratio); higher = better substrate or ligand; peptides without Tyr show the background
Sequence (P62993 whole entry, looked up): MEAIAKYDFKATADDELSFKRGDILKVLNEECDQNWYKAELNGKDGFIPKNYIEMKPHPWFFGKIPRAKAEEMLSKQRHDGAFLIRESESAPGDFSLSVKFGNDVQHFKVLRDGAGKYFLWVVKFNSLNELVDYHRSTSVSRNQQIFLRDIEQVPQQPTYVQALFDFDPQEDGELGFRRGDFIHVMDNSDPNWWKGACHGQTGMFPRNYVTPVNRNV
Give your answer as a number; write no unit.

Would you please look over these solved cases?
TLQTMYGCDVG [HLA-B_Y123_S121T] : 0.854
FISVGYVDGTQ [HLA-B_Y51_D54G] : 0.781

Moving on to the next sequence.
For this sequence ( ADEEYYEIIAA [FEStide_no-pY_2014] ), measured SH2 binding enrichment is 0.956

* * *

molecular target: Fes (UniProt P07332); assay: phosphorylation enrichment, bacterial display (enrichment ratio); higher = better substrate or ligand; peptides without Tyr show the background
Sequence (P07332 whole entry, looked up): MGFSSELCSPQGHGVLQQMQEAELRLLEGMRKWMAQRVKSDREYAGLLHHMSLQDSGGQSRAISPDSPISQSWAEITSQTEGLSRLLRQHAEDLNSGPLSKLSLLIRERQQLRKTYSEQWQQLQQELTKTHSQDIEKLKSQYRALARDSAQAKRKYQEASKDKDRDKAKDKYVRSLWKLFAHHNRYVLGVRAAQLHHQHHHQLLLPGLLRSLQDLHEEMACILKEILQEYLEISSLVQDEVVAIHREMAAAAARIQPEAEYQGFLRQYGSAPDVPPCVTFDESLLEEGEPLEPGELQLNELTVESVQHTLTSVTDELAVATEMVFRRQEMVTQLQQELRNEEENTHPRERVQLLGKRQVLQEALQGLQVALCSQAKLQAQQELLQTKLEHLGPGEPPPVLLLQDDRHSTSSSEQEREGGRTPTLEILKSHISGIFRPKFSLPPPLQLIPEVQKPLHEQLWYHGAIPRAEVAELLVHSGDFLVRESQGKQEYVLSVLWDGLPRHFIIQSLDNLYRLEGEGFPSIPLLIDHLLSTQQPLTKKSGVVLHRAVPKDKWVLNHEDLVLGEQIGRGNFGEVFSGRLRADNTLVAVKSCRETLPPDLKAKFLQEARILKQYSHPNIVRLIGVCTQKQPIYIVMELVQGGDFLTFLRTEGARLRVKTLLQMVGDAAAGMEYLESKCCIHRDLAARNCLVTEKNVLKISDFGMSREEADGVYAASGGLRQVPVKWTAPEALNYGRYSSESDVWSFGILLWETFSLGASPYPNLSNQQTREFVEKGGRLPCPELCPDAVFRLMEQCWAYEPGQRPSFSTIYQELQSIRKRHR
Attribute: phosphorylation enrichment
Give your answer as a number; write no unit.

Would you please look over these solved cases?
LSERGYSFVTT [ACTA2_Y200_T196S] : 1.41
EVQKDYEHLFK [PAM16_Y77_N76D] : 0.804
YTTIHYNYMCN [TP53_Y234_C229Y] : 1.16
RSGIYYKPESL [L2HGDH_Y103_H98R] : 0.915

For this sequence ( ESMQSYDLDFP [UNC13B_Y243_D238E_YF] ), measured phosphorylation enrichment is 1.04

For this sequence ( TLLAFYMGNFS [GLB1_Y552_P549L] ), measured phosphorylation enrichment is 1.49

For this sequence ( SSNTEYLSASD [INSR_Y999_P997T] ), measured phosphorylation enrichment is 0.746

For this sequence ( CVGGFYGGCNE [CTSC_Y352_Y347C] ), measured phosphorylation enrichment is 0.854

For this sequence ( HDRNTYEKYLG [TF_Y666] ), measured phosphorylation enrichment is 0.796

For this sequence ( QMVRMYASSFM [AVPR2_Y124_G122R_YF] ), measured phosphorylation enrichment is 0.843

For this sequence ( KVKEQYQDVPM [PKP2_Y659] ), measured phosphorylation enrichment is 0.717

For this sequence ( KRLKDYLMVLQ [USP25_Y425_T427M] ), measured phosphorylation enrichment is 0.791

For this sequence ( PDSVDYRKKGF [CTSK_Y121_YF] ), measured phosphorylation enrichment is 0.536

For this sequence ( ISRDVYSTDYY [NTRK2_Y702_M697I] ), measured phosphorylation enrichment is 1.04

For this sequence ( LNEQHYGGLTG [PGAM4_Y92_R90Q] ), measured phosphorylation enrichment is 1.2

* * *

Attribute: SH2 binding enrichment
biological target: Grb2 SH2 (UniProt P62993); experiment: SH2 binding enrichment of the phosphorylated peptide, bacterial display (enrichment ratio); higher = better substrate or ligand; peptides without Tyr show the background
Give your answer as a number; write no unit.

DYNPNYCFAGK [ALK_Y1096] : 0.799

For this sequence ( ADCRYYTFPQM [GAMT_Y223_A224T] ), measured SH2 binding enrichment is 1.05

For this sequence ( AQADIYKADFQ [IKBKG_Y308] ), measured SH2 binding enrichment is 0.836

For this sequence ( CTTIHYNCMCN [TP53_Y234_Y236C] ), measured SH2 binding enrichment is 0.775

For this sequence ( VGTTAYVAPEA [IRAK4_Y354_M355V] ), measured SH2 binding enrichment is 0.938

For this sequence ( EMFNPCYGLFE [NEDD4L_Y679_Y679C] ), measured SH2 binding enrichment is 0.918

For this sequence ( FSDQVYRQRRK [TH_Y230] ), measured SH2 binding enrichment is 0.634

For this sequence ( KMGNEYVTKGQ [MYH7_Y410_V406M] ), measured SH2 binding enrichment is 0.713

For this sequence ( IRCQGYSHRIL [MYO3B_Y993_R990C] ), measured SH2 binding enrichment is 0.925

For this sequence ( `STKELYEKFMI` ), measured SH2 binding enrichment is 0.915

For this sequence ( REGKIYEYNQV [ZNF665_Y162_H157R] ), measured SH2 binding enrichment is 0.84

* * *

Attribute: phosphorylation enrichment
molecular target: Fes (UniProt P07332); experiment: phosphorylation enrichment, bacterial display (enrichment ratio); higher = better substrate or ligand; peptides without Tyr show the background
Give your answer as a number; write no unit.

For this sequence ( LLSVAYKNVVR [YWHAZ_Y48_G53R] ), measured phosphorylation enrichment is 1.34

For this sequence ( AGREIYESDKC [TTN_Y4424] ), measured phosphorylation enrichment is 0.996

For this sequence ( IEEGTYGVVYR [CDK11B_Y449] ), measured phosphorylation enrichment is 1.01

For this sequence ( CTIIHYNYMCN [TP53_Y234_T231I] ), measured phosphorylation enrichment is 1

* * *

Attribute: phosphorylation enrichment
biological target: Jak2 (UniProt O60674); experiment: phosphorylation enrichment, bacterial display (enrichment ratio); higher = better substrate or ligand; peptides without Tyr show the background
Sequence (O60674 whole entry, looked up): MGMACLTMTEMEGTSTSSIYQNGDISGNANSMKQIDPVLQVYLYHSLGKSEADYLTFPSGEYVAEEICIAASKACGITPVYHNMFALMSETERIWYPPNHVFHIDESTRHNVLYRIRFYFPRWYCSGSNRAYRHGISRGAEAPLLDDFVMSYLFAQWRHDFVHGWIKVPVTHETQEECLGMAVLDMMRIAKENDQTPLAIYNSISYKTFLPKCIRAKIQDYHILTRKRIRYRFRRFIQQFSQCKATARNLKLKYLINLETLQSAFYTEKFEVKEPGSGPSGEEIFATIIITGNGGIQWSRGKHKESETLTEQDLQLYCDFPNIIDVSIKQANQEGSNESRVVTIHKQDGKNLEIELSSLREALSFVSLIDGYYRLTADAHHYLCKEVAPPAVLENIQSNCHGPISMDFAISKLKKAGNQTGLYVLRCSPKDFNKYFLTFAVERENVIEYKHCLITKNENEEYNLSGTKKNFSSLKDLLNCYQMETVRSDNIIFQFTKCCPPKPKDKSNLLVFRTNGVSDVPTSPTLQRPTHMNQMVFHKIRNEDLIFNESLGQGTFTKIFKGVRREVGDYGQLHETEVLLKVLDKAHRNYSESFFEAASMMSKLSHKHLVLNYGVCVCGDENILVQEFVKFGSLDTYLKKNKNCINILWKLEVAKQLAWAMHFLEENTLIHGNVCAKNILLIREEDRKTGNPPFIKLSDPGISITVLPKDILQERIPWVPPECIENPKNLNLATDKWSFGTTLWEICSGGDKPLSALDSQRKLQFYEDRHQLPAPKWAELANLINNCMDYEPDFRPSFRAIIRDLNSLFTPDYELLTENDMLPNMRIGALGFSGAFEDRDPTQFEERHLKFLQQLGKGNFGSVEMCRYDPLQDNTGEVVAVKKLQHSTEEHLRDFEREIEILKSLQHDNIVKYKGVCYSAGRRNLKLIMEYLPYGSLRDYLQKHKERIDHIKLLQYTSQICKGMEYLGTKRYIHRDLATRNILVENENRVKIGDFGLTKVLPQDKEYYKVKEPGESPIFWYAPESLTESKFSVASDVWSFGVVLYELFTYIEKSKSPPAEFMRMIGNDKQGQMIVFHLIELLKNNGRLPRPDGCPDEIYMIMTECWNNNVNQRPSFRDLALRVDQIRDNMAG
Give your answer as a number; write no unit.

Would you please look over these solved cases?
SLNEGYARDFD [FBP1_Y216] : 0.908
FLGRNYLETLM [DUS3L_Y610_D609N_YF] : 0.63
SVQIVYKPVDL [MAPT_Y627] : 0.891
LFDHIYTTQSD [RET_Y928] : 1.81

For this sequence ( DQVEQCKKELE [LMNA_Y259_Y259C] ), measured phosphorylation enrichment is 1.1

For this sequence ( AGREIYESDKC [TTN_Y4424] ), measured phosphorylation enrichment is 0.731

For this sequence ( IGEGTYGVLYK [CDK2_Y15_V18L] ), measured phosphorylation enrichment is 0.635

For this sequence ( DPGVSYCTREE [PDHA1_Y301_R302C] ), measured phosphorylation enrichment is 1.1

For this sequence ( GKTQQYDCKWF [BCR_Y751_YF] ), measured phosphorylation enrichment is 0.927
